Source of measurements: patent US20250340659A1

Recorded % Signal Inhibition Rep2 for the following binders
Target: T1, canine OX40L, full length membrane form, expressed on HEK293 cells (canine)
T1 chain: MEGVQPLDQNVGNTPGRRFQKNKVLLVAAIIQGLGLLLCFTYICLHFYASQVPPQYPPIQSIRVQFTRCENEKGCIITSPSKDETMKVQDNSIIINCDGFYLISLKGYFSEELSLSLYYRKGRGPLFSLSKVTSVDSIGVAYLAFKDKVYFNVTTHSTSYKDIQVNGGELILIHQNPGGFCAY
Experiment: cell-based or functional assay
Number in %, nothing else.

>  <BINDER>
PMX087 (antibody, V domains shown) VH: EVHLVESGGDLVKPGGSLRLSCVASGFTFSNYHMSWVRQAPGKGLQWVAFINSGGSGTSYADAVKGRFTISRDYAKSTLYLQMNSLRAEDTAVYYCASGYIWTHFDYWGQGTLVTVSS VL: SYVLTQLPSVSVTLRQTARITCGGDIIGSKNVYWYQQKLGQAPILIIYRDSNRPTGIPERFSGASSGNTATLTISGALAEDEADYYCQVWDSSTSVFGGGTHLTVL

>  <% Signal Inhibition Rep2 / %>
46.2

$$$$

Exam item: # lookup: % Signal Inhibition Rep2 of PMX089 (antibody, V domains shown) VH: EVQLVESGGDLVKPGGSLRLSCVASGFTFNNFHMSWVRQAPGKGLQWVAFINSDGGNRNYADVVKGRVTISRDYAKNTLYLQINSLRAEDTAVYYCAGGSIWTHFDYWGQGTLVTVSS VL: SYVLTQLPSMSVTLRQTARITCEGDIIASKRIYWYQQKLGQVPVLLIYADSSRPSGIPERFSGASSGNTATLTISGALAEDEADYYCQVWDNNANSVFGGGTHLTVL
Marked response: 49.7
